Test system: rat RANKL mRNA
Assay: Antisense inhibition of rat RANKL mRNA levels in UMR-106 cells, quantitative real-time PCR (Table 3)
Assay type: cell-based
Design: concentration or dose not given beside the values
Details: averages from three experiments
Strand notation (5' to 3'): a small letter for the sugar, then the base; units joined by * are phosphorothioate-linked, units joined directly phosphodiester-linked; [ ] holds rarer units or linkages, { } end groups; capitals alone tell only the bases. e = 2'-O-(2-methoxyethyl) (MOE); [5mC] = 5-methylcytosine; d = 2'-deoxy (DNA)
valueType: % INHIB (inhibition of rat RANKL mRNA levels)

INSERT INTO assay_data (substance, experimentalsystem, readoutvalue) VALUES
  ('ttttaacgacatataccatc (eT*eT*eT*eT*eA*dA*d[5mC]*dG*dA*d[5mC]*dA*dT*dA*dT*dA*e[5mC]*e[5mC]*eA*eT*e[5mC]; antisense) [ISIS 286630, 2′-MOE gapmer targeted to rat RANKL]', 'rat RANKL mRNA', 'at least 40%'),
  ('atcttggttaacccttagtt (eA*eT*e[5mC]*eT*eT*dG*dG*dT*dT*dA*dA*d[5mC]*d[5mC]*d[5mC]*dT*eT*eA*eG*eT*eT; antisense) [ISIS 286620, 2′-MOE gapmer targeted to rat RANKL]', 'rat RANKL mRNA', 'at least 40%'),
  ('286607 (antisense eT*eG*eT*eG*eG*d[5mC]*d[5mC]*d[5mC]*d[5mC]*dA*d[5mC]*dA*dA*dT*dG*eT*eG*eT*eT*eG) [compound 286607]', 'rat RANKL mRNA', '48%'),
  ('agcaaatgttggcgtacagg (antisense eA*eG*e[5mC]*eA*eA*dA*dT*dG*dT*dT*dG*dG*d[5mC]*dG*dT*eA*e[5mC]*eA*eG*eG) [ISIS 180807, 2′-MOE gapmer targeted to mouse and rat RANKL]', 'rat RANKL mRNA', 'at least 40%');
